target: His6-ERα298-554 Y537S mutant (ERα ligand-binding domain) (Homo sapiens (Human), UniProt P03372, Y537S); test: Test A: biochemical antagonist activity, LanthaScreen TR-FRET ERα coactivator assay, Y537S mutant; details: protocol with 3 nM estradiol; read-out: Antagonism Y537S IC50
Sequence (P03372 298-554 Y537S): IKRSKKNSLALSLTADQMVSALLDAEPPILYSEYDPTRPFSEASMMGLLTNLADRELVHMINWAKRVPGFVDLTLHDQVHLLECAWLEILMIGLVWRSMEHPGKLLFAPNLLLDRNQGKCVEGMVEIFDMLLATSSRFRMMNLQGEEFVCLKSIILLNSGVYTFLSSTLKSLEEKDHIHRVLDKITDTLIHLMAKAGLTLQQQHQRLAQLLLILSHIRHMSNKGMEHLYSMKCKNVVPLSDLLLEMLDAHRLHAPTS
Parameter Measured: IC50 (µM)

query_smiles=Oc1cccc(C2=C(c3ccc(O[C@H]4CCN(CCCF)C4)cc3)c3ccc(O)cc3SCC2)c1 unit_abbreviation=µM meas_value=0.003
query_smiles=Oc1ccc2c(c1)SCC(c1ccc(Cl)cc1F)=C2c1ccc(O[C@H]2CCN(CCCF)C2)cc1 unit_abbreviation=µM meas_value=0.015
query_smiles=Cc1c(O)ccc2c1OCCC(c1cccc3[nH]ccc13)=C2c1ccc(O[C@H]2CCN(CCCF)C2)cc1 unit_abbreviation=µM meas_value=0.777
query_smiles=Cc1c(Cl)cccc1C1=C(c2ccc(O[C@H]3CCN(CCCF)C3)cc2)c2ccc(O)c(F)c2OCC1 unit_abbreviation=µM meas_value=0.023
query_smiles=Cc1ccc(C2=C(c3ccc(O[C@H]4CCN(CCCF)C4)cc3)c3cc(Cl)c(O)cc3OCC2)c(F)c1 unit_abbreviation=µM meas_value=3.27
query_smiles=Oc1ccc2c(c1)OCCC(c1cccc3c1CCN3)=C2c1ccc(O[C@H]2CCN(CCCF)C2)cc1 unit_abbreviation=µM meas_value=0.214
query_smiles=Cc1c(Cl)cccc1C1=C(c2ccc(O[C@H]3CCN(CCCF)C3)cc2)c2ccc(O)cc2OCC1 unit_abbreviation=µM meas_value=0.025
query_smiles=Oc1ccc2c(c1)SCCC(c1cnc3c(c1)CCN3)=C2c1ccc(O[C@H]2CCN(CCCF)C2)cc1 unit_abbreviation=µM meas_value=0.07
query_smiles=Oc1ccc2c(c1)SCCC(c1ccc3[nH]ccc3c1)=C2c1ccc(O[C@H]2CCN(CCCF)C2)cc1 unit_abbreviation=µM meas_value=0.008
query_smiles=Oc1ccc2c(c1)OCCC(c1cccc(F)c1Cl)=C2c1ccc(O[C@H]2CCN(CCCF)C2)cc1 unit_abbreviation=µM meas_value=0.02
query_smiles=Oc1ccc2c(c1)SCCC(c1ccc(F)c(OC(F)F)c1)=C2c1ccc(O[C@H]2CCN(CCCF)C2)cc1 unit_abbreviation=µM meas_value=0.157
query_smiles=Oc1ccc(C2=C(c3ccc(O[C@H]4CCN(CCCF)C4)cc3)c3ccc(O)cc3SCC2)c(F)c1 unit_abbreviation=µM meas_value=0.003
query_smiles=Oc1cccc(C2=C(c3ccc(O[C@H]4CCN(CCCF)C4)cc3)c3ccc(O)cc3OCC2)c1 unit_abbreviation=µM meas_value=0.006
query_smiles=Oc1ccc2c(c1)SCCC(c1ccc3occc3c1)=C2c1ccc(O[C@H]2CCN(CCCF)C2)cc1 unit_abbreviation=µM meas_value=0.004
query_smiles=Oc1ccc2c(c1Cl)OCCC(c1cccc3c1CCN3)=C2c1ccc(O[C@H]2CCN(CCCF)C2)cc1 unit_abbreviation=µM meas_value=0.933
query_smiles=CCOc1ccc(C2=C(c3ccc(O[C@H]4CCN(CCCF)C4)cc3)c3ccc(O)cc3OCC2)cn1 unit_abbreviation=µM meas_value=0.024
query_smiles=Cc1ccc(C2=C(c3ccc(O[C@H]4CCN(CCCF)C4)cc3)c3ccc(O)c(C)c3OCC2)c(F)c1 unit_abbreviation=µM meas_value=0.407
query_smiles=Cc1c(Cl)cccc1C1=C(c2ccc(O[C@H]3CCN(CCCF)C3)cc2)c2ccc(O)c(C)c2OCC1 unit_abbreviation=µM meas_value=0.543
query_smiles=Oc1ccc2c(c1)OCCC(c1ccc(Cl)cc1F)=C2c1ccc(O[C@H]2CCN(CCCF)C2)cc1 unit_abbreviation=µM meas_value=0.04
query_smiles=Cc1cc(C2=C(c3ccc(O[C@H]4CCN(CCCF)C4)cc3)c3ccc(O)cc3SC2)ccc1Cl unit_abbreviation=µM meas_value=0.014
query_smiles=Oc1ccc(C2=C(c3ccc(O[C@H]4CCN(CCCF)C4)cc3)c3ccc(O)cc3OCC2)c(F)c1 unit_abbreviation=µM meas_value=0.006
query_smiles=Oc1ccc2c(c1)SCCC(c1cccc3[nH]ccc13)=C2c1ccc(O[C@H]2CCN(CCCF)C2)cc1 unit_abbreviation=µM meas_value=0.007
query_smiles=Cc1ccc(C2=C(c3ccc(O[C@H]4CCN(CCCF)C4)cc3)c3ccc(O)cc3OCC2)c(F)c1 unit_abbreviation=µM meas_value=0.019
query_smiles=Cc1ccc(C2=C(c3ccc(O[C@H]4CCN(CCCF)C4)cc3)c3ccc(O)c(Cl)c3OCC2)c(F)c1 unit_abbreviation=µM meas_value=0.129
query_smiles=Oc1ccc2c(c1F)OCCC(c1cccc3c1CCN3)=C2c1ccc(O[C@H]2CCN(CCCF)C2)cc1 unit_abbreviation=µM meas_value=0.225
query_smiles=Cc1cccc(C2=C(c3ccc(O[C@H]4CCN(CCCF)C4)cc3)c3ccc(O)cc3OCC2)c1C unit_abbreviation=µM meas_value=0.024
query_smiles=Cc1c(Cl)cccc1C1=C(c2ccc(O[C@H]3CCN(CCCF)C3)cc2)c2ccc(O)cc2S(=O)(=O)CC1 unit_abbreviation=µM meas_value=0.083
query_smiles=Oc1ccc2c(c1)C(c1ccc(O[C@H]3CCN(CCCF)C3)cc1)=C(c1ccc(F)c(Cl)c1)CCS2 unit_abbreviation=µM meas_value=0.222
query_smiles=Cc1c(O)ccc2c1OCCC(c1ccc3cc[nH]c3c1)=C2c1ccc(O[C@H]2CCN(CCCF)C2)cc1 unit_abbreviation=µM meas_value=2.68
query_smiles=O=S1(=O)CCC(c2cccc(F)c2Cl)=C(c2ccc(O[C@H]3CCN(CCCF)C3)cc2)c2ccc(O)cc21 unit_abbreviation=µM meas_value=0.078
